Would you mind telling me the reported inhibition of each entry?
experimentalProtocol: HTB85 osteosarcoma cell growth inhibition, synergistic combos for chromothripsis tumors, BGB or cisplatin IC20 combos (AID 1671453);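 note: cells exposed for 96 hours before readout; 0% = vehicle DMSO and 100% = high DMSO killing control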
settings: HTB85 osteosarcoma cells, drug combinations, single agent, at 5 µM, stronger effect = higher value
Answers are plain numbers, in %.

As a guide, the following entries are already answered.
O=C(O)CCCc1ccccc1	-16.3
O=c1[nH]cc(F)c(=O)[nH]1	21.8
CCN(CC)CCCC(C)Nc1c2ccc(Cl)cc2nc2ccc(OC)cc12 (centres undefined)	99.9

We now examine a further compound.
Reported inhibition for CC(=O)OCC(CCn1cnc2cnc(N)nc21)COC(C)=O : what is it?
-10
